This collection of values is drawn from patent US8901138B2.

- MEASURED_ON: MNK1a (Homo sapiens)
- Sequence (Q9BUB5 1-424 isoform Q9BUB5-2): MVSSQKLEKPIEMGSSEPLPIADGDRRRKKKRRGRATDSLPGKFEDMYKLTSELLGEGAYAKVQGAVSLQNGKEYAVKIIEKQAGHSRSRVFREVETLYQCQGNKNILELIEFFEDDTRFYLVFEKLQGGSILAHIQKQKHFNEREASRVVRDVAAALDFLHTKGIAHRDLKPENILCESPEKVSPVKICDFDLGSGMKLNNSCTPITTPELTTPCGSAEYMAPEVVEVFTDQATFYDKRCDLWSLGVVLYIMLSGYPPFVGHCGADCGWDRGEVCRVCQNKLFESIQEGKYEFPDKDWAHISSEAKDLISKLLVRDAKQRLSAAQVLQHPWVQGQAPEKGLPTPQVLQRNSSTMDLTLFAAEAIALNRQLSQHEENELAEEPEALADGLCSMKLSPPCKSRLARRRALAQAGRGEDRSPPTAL
- EXPERIMENTAL_PROTOCOL: MNK1 in vitro kinase assay (assay 2), Z'-LYTE
- Type: biochemical
- STATED_CONDITIONS: compound concentration of 1 μM
Listed here are compounds together with their documented inhibition at 1 µM.

[
  {
    "SMILES_RECORD": "Cc1cc(N=S(C)(C)=O)cc2ncnc(Nc3ccc(F)cc3OC3(C)COC3)c12",
    "inhibition at 1 µM": "87%"
  },
  {
    "SMILES_RECORD": "Cc1cc(N=S2(=O)CCOCC2)cc2ncnc(Nc3ccc(F)cc3O[C@H]3CCOC3)c12",
    "inhibition at 1 µM": "89%"
  },
  {
    "SMILES_RECORD": "COC(=O)N1CCS(=O)(=Nc2cc(C)c3c(Nc4ccc(F)cc4O[C@H]4CC[C@H](OC)CC4)ncnc3c2)CC1",
    "inhibition at 1 µM": "72%"
  },
  {
    "SMILES_RECORD": "CO[C@H]1CC[C@H](Oc2cc(F)ccc2Nc2ncnc3cc(N=S4(=O)CCN(C(C)=O)CC4)cc(C)c23)CC1",
    "inhibition at 1 µM": "82%"
  },
  {
    "SMILES_RECORD": "CO[C@H]1CC[C@H](Oc2cc(F)ccc2Nc2ncnc3cc(N=S4(=O)CCOCC4)cc(C)c23)CC1",
    "inhibition at 1 µM": "91%"
  },
  {
    "SMILES_RECORD": "CCOc1cc(N=S(C)(C)=O)cc2ncnc(Nc3ccc(F)cc3O[C@H]3CCOC3)c12",
    "inhibition at 1 µM": "101%"
  },
  {
    "SMILES_RECORD": "CO[C@H]1CC[C@H](Oc2cc(F)ccc2Nc2ncnc3cc(N=S4(=O)CCNCC4)cc(C)c23)CC1",
    "inhibition at 1 µM": "88%"
  }
]

----------
Consider the following molecules and their measured inhibition at 1 µM readings.
- MEASURED_ON: UniProtKB Q9BUB5
- EXPERIMENTAL_PROTOCOL: MNK1 in vitro kinase assay (assay 2), Z'-LYTE
- Format: biochemical
- STATED_CONDITIONS: compound concentration of 1 μM

[
  {
    "MOLECULE": "Cc1cc(N=S(C)(=O)CCN(C)C)cc2ncnc(Nc3ccc(F)cc3O[C@H]3CC[C@H](O)CC3)c12 (stereo partly shown) [Example 2.113]",
    "inhibition at 1 µM (%)": 90
  },
  {
    "MOLECULE": "Cc1cc(N=S2(=O)CCC2)cc2ncnc(Nc3ccc(F)cc3O[C@@H]3CO[C@@H]4CCO[C@@H]43)c12 [Example 2.106]",
    "inhibition at 1 µM (%)": 98
  },
  {
    "MOLECULE": "Cc1cc(N=S(C)(C)=O)cc2ncnc(Nc3ccc(F)cc3O[C@H]3CC[C@H](C#N)CC3)c12 [Example 4.4]",
    "inhibition at 1 µM (%)": 92
  },
  {
    "MOLECULE": "Cc1cc(N=S2(=O)CCCC2)cc2ncnc(Nc3cccnc3OC3COCCOC3)c12 [Example 2.88]",
    "inhibition at 1 µM (%)": 95
  },
  {
    "MOLECULE": "CCS(C)(=O)=Nc1cc(C)c2c(Nc3ccc(F)cc3O[C@@H]3CO[C@H]4[C@@H]3OC[C@H]4OC)ncnc2c1 (stereo partly shown) [Example 2.55]",
    "inhibition at 1 µM (%)": 99
  },
  {
    "MOLECULE": "Cc1cc(N=S(C)(C)=O)cc2ncnc(Nc3ccc(F)cc3O[C@@H]3CCCC[C@H]3F)c12 [Example 7.17]",
    "inhibition at 1 µM (%)": 96
  },
  {
    "MOLECULE": "CC(C)(C)OC(=O)N[C@H]1CC[C@H](Oc2ncccc2Nc2ncnc3cc(N=S(C)(C)=O)cc(F)c23)CC1 [Example 2.15]",
    "inhibition at 1 µM (%)": 72
  },
  {
    "MOLECULE": "Cc1cc(N=S(C)(C)=O)cc2ncnc(Nc3cccnc3O[C@@H]3CO[C@H]4[C@@H]3OC[C@H]4O)c12 [Example 1.9]",
    "inhibition at 1 µM (%)": 90
  },
  {
    "MOLECULE": "CCO[C@@H]1CO[C@H]2[C@@H]1OC[C@H]2Oc1cc(F)ccc1Nc1ncnc2cc(N=S(C)(C)=O)cc(C)c12 [Example 2.7]",
    "inhibition at 1 µM (%)": 98
  },
  {
    "MOLECULE": "Cc1cc(N=[S@@](C)(=O)c2ccccc2)cc2ncnc(Nc3ccc(F)cc3O[C@H]3CCOC3)c12 [Example 2.64]",
    "inhibition at 1 µM (%)": 87
  },
  {
    "MOLECULE": "Cc1cc(N=S(C)(C)=O)cc2ncnc(Nc3ccc(F)cc3O[C@@H]3CC[C@@H]4OCC[C@@H]43)c12 [Example 2.124]",
    "inhibition at 1 µM (%)": 83
  },
  {
    "MOLECULE": "CO[C@@H]1CO[C@H]2[C@@H]1OC[C@H]2Oc1cc(F)ccc1Nc1ncnc2cc(N=S(C)(C)=O)cc(F)c12 [Example 2.76]",
    "inhibition at 1 µM (%)": 100
  },
  {
    "MOLECULE": "Cc1cc(N=S(C)(C)=O)cc2ncnc(Nc3cccnc3O[C@H]3CC[C@H](O)CC3)c12 [Example 2.31]",
    "inhibition at 1 µM (%)": 100
  },
  {
    "MOLECULE": "CS(C)(=O)=Nc1cc(F)c2c(Nc3ccc(F)cc3O[C@@H]3CCCN(CC(F)(F)F)C3)ncnc2c1 [Example 6.13]",
    "inhibition at 1 µM (%)": 80
  },
  {
    "MOLECULE": "Cc1cc(N=S2(=O)CCC2)cc2ncnc(Nc3ccc(F)cc3O[C@H]3CC[C@H](O)CC3)c12 [Example 2.110]",
    "inhibition at 1 µM (%)": 100
  },
  {
    "MOLECULE": "Cc1cc(N=S2(=O)CCCC2)cc2ncnc(Nc3ccc(F)cc3O[C@@H]3CCN(C(=O)OC(C)(C)C)C3)c12 [Example 2.59]",
    "inhibition at 1 µM (%)": 82
  },
  {
    "MOLECULE": "O=S1(=Nc2cc(Cl)c3c(Nc4ccc(F)cc4O[C@H]4CCOC4)ncnc3c2)CCC1 [Example 1.26]",
    "inhibition at 1 µM (%)": 100
  },
  {
    "MOLECULE": "Cc1cc(N=S2(=O)CCCC2)cc2ncnc(Nc3ccc(F)cc3O[C@@H]3CO[C@@H]4OCC[C@@H]43)c12 (racemic) [Example 2.82]",
    "inhibition at 1 µM (%)": 88
  },
  {
    "MOLECULE": "Cc1cc(N=S(C)(C)=O)cc2ncnc(Nc3ccc(Br)cc3OC3CCOCC3)c12 [Example 1.10]",
    "inhibition at 1 µM (%)": 80
  },
  {
    "MOLECULE": "CCS(=O)(CC)=Nc1cc(C)c2c(Nc3ccc(F)cc3O[C@@H]3CO[C@H]4[C@@H]3OC[C@H]4O)ncnc2c1 [Example 2.86]",
    "inhibition at 1 µM (%)": 89
  },
  {
    "MOLECULE": "Cc1cc(N=S2(=O)CCCCC2)cc2ncnc(Nc3ccc(F)cc3O[C@@H]3CO[C@H]4[C@@H]3OC[C@H]4O)c12 [Example 2.51]",
    "inhibition at 1 µM (%)": 101
  },
  {
    "MOLECULE": "CO[C@@H]1CO[C@H]2[C@@H]1OC[C@H]2Oc1cc(F)ccc1Nc1ncnc2cc(N=S(C)(C)=O)cc(Br)c12 [Example 1.20]",
    "inhibition at 1 µM (%)": 100
  },
  {
    "MOLECULE": "CCO[C@@H]1CO[C@H]2[C@@H]1OC[C@H]2Oc1cc(F)ccc1Nc1ncnc2cc(N=S3(=O)CCCC3)cc(C)c12 [Example 2.37]",
    "inhibition at 1 µM (%)": 95
  },
  {
    "MOLECULE": "Cc1cc(N=S(C)(C)=O)cc2ncnc(Nc3cccnc3O[C@@H]3CCCN(C(=O)OC(C)(C)C)C3)c12 [Example 2.23]",
    "inhibition at 1 µM (%)": 66
  },
  {
    "MOLECULE": "C=Cc1cc(N=S(C)(C)=O)cc2ncnc(Nc3ccc(F)cc3O[C@H]3CCOC3)c12 [Example 7.7]",
    "inhibition at 1 µM (%)": 97
  },
  {
    "MOLECULE": "CS(C)(=O)=Nc1cc(F)c2c(Nc3ccc(F)cc3O[C@@H]3CCN(CCO)C3)ncnc2c1 [Example 6.15]",
    "inhibition at 1 µM (%)": 82
  },
  {
    "MOLECULE": "COc1cc(N=S(C)(C)=O)cc2ncnc(Nc3ccc(F)cc3O[C@H]3CC[C@H](OC)CC3)c12 [Example 5.3]",
    "inhibition at 1 µM (%)": 90
  },
  {
    "MOLECULE": "CS(C)(=O)=Nc1cc(F)c2c(Nc3ccc(F)cc3O[C@@H]3CCN(CC(F)F)C3)ncnc2c1 [Example 6.16]",
    "inhibition at 1 µM (%)": 90
  }
]
